System: Klebsiella pneumoniae
Details: Concentration 32 ug.mL-1;; ASSAY_TEST Inhibition of Bacterial Growth; detection method Absorption (OD600); MEDIA CAMHB; plate type 384well; NBS; CORNING #3640; time 18 hr
Description: Antibacterial activity against Klebsiella pneumoniae MDR ATCC 70063 (CO-ADD:GN_003); MIC in CAMBH media using NBS plates, by OD(600)
Potency and affinity values are given separately.

MOLECULE | Inhibition
Cc1ccc(NC(=O)Cn2c(=O)c3nnc(C(C)C)n3c3ccccc32)cc1C | 11.54%
Cc1nnc2ccc(S(=O)(=O)N(Cc3ccccc3F)c3cc(F)cc(F)c3)cn12 | -4.61%
O=S(=O)(c1ccc2nncn2c1)N(Cc1cccc(F)c1)c1cc(F)cc(F)c1 | 12.28%
CC(C)Sc1ccc2nn(CC(=O)Nc3ccc(F)cc3Cl)c(=O)n2n1 | 6.92%
Cc1ccc(NC(=O)Cn2nc3ccc(-c4ccc(Cl)cc4)nn3c2=O)cc1 | 3.71%

* * *

Tested on: Candida albicans
Conditions: Concentration 32 ug.mL-1; ASSAY_TEST Inhibition of Fungal Growth; detection method Absorption (OD530)
Description: Antifungal activity against Candida albicans ATCC 90028 (CO-ADD:FG_001); MIC in YNB media using NBS plates, by OD630
Results with a measured potency or affinity are listed apart.
Entries and their measured Inhibition follow.

COMPOUND | TARGET DESC | READOUT UNITS | Inhibition
CCOC(=O)c1ccc(NC(=O)Cn2nc3ccc(S(=O)(=O)C(C)(C)C)nn3c2=O)cc1 | Candida albicans | % | 15.58
COc1ccccc1CNC(=O)CSc1nnc2c3cc(-c4ccc(C)cc4)nn3ccn12 | Candida albicans | % | -1.83
COc1ccc(C)cc1NC(=O)Cn1nc2c3cc(-c4ccc(Cl)cc4)nn3ccn2c1=O | Candida albicans | % | -1.06
COc1ccc(NC(=O)Cn2nc3c(N4CCCC(C)C4)nccn3c2=O)cc1OC (stereo not given) | Candida albicans | % | -0.12
COc1ccc(NC(=O)Cn2nc3c4cc(-c5ccc(F)cc5)nn4ccn3c2=O)c(OC)c1 | Candida albicans | % | 2.08
Cc1ccc(-c2cc3c4nnc(CCC(=O)NCCCc5ccccc5)n4ccn3n2)cc1C | Candida albicans | % | -0.09
COc1ccccc1N1CCN(C(=O)Cn2nc3ccc(-c4ccccc4)nn3c2=O)CC1 | Candida albicans | % | 1.1
CC(C)c1ccc(Cn2c(=O)c3sccc3n3c(SCc4cccc(C(F)(F)F)c4)nnc23)cc1 | Candida albicans | % | -0.58
CCc1ccccc1Sc1nccn2c(=O)n(CC(=O)Nc3cc(C)ccc3C)nc12 | Candida albicans | % | 1.62
COc1cccc(NC(=O)Cn2nc3c(Sc4ccccc4)nccn3c2=O)c1 | Candida albicans | % | 7.99
Cc1nnc2c(SCC(=O)N3CCN(c4ccccc4F)CC3)nc3ccccc3n12 | Candida albicans | % | 8.32
O=C(Cn1nc2ccc(SCc3ccc(Cl)cc3)nn2c1=O)NC1CCCCC1 | Candida albicans | % | 3.05
CCc1nnc2c(S(=O)(=O)N(Cc3cccc(F)c3)c3ccccc3)cccn12 | Candida albicans | % | 3.58
COCCCNC(=O)CSc1nnc2c(=O)n(Cc3ccccc3)ccn12 | Candida albicans | % | 2.41
CC(C)CCNC(=O)CSc1nnc2c(=O)n(Cc3ccc(F)cc3)ccn12 | Candida albicans | % | 1.44
